Where do the numbers come from? From patent US20200262877A1.

Listed here are substances together with their documented Activity of a3b4 with peptide, expressed as a percentage of the reference compound.
- Experimental target: α3β4 (Homo sapiens, UniProt P30926+P32297)
- Construct: host or cells: HEK293 or CHO
- Sequence (P30926 22-498): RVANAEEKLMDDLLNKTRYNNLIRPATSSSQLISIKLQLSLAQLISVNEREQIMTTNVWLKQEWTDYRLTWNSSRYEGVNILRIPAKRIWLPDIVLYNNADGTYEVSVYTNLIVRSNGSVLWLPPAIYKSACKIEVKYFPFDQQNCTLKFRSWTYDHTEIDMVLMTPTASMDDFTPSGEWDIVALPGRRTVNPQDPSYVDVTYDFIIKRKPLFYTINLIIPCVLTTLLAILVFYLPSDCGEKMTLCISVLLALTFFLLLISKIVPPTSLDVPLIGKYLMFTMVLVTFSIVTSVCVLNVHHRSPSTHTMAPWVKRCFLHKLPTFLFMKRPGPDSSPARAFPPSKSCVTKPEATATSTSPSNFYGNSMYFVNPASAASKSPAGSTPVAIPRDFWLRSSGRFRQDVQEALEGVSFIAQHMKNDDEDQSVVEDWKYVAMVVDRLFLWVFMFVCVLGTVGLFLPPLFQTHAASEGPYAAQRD
- Sequence (P32297 32-505): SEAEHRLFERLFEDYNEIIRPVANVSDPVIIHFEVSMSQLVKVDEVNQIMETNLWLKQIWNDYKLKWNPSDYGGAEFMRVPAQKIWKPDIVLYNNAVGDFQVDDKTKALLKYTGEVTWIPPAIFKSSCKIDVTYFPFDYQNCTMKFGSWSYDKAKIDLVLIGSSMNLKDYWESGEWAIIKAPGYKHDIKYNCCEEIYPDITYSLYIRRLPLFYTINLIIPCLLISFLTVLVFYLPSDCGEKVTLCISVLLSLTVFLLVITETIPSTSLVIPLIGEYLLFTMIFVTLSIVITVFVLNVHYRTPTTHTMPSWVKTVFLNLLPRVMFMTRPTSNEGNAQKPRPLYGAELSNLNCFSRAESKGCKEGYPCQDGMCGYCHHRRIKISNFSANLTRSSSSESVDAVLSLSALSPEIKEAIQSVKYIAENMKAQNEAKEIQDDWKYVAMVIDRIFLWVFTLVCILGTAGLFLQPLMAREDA
- Procedure text: Ion channel panel (IonWorks Barracuda): α3β4
- Assay type: cell-based
- Assay conditions: peptide at 0.2 μM; 100% = no change, <100% = inhibition
Quantity name: Activity of a3b4 with peptide, expressed as a percentage of the reference compound (%)

Substance: 26 (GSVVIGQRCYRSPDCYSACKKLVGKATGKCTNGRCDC) [compound 26]
Readout value: 88
--
Substance: 11 (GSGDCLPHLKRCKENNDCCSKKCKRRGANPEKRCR) [compound 11]
Readout value: 95
--
Substance: 6 (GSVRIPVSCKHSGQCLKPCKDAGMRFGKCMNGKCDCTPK) [compound 6]
Readout value: 100
--
Substance: 18 (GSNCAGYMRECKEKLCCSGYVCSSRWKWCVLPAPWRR) [compound 18]
Readout value: 110
--
Substance: 21 (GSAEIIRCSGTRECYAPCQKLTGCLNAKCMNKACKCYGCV) [compound 21]
Readout value: 102
--
Substance: 10 (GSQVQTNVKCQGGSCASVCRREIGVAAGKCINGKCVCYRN) [compound 10]
Readout value: 97
--
Substance: 20 (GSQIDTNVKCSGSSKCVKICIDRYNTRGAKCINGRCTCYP) [compound 20]
Readout value: 103
--
Substance: 22 (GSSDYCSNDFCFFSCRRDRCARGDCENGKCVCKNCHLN) [compound 22]
Readout value: 98
--
Substance: 17 (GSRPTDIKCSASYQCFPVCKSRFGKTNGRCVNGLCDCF) [compound 17]
Readout value: 98

====

- Experimental target: Kv2.1 (Homo sapiens, UniProt Q14721)
- Construct: host or cells: HEK293 or CHO
- Sequence (Q14721 whole entry): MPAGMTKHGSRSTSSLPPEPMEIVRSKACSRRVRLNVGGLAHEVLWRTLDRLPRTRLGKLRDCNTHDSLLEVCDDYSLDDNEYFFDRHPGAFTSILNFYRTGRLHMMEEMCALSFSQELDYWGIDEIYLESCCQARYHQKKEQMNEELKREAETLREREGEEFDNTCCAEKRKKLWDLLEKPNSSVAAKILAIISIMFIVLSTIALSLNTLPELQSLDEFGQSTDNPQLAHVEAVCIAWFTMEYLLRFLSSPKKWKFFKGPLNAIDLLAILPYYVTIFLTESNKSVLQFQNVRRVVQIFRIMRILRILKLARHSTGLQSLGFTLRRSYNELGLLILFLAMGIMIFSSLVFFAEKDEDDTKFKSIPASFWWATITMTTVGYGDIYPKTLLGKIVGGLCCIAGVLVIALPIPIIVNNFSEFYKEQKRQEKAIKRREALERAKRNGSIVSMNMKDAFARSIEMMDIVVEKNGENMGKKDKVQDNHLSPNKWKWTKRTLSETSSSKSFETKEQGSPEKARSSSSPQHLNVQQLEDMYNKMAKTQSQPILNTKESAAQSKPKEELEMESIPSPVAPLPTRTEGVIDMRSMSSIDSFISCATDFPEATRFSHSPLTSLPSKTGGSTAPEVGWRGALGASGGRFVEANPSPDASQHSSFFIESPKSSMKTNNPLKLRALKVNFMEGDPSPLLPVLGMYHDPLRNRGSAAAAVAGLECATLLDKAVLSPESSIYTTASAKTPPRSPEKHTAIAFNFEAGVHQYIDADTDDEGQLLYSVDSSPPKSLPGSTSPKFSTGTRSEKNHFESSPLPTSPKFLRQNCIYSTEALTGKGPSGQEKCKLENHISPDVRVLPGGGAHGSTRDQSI
- Procedure text: cell-based
- Assay conditions: peptide at 0.2 μM; 100% = no change, <100% = inhibition
- Method: This example describes a method for assaying ion channel activity in cells. Peptides were screened in duplicate at final concentrations of 20 μM and 200 nM, as determined by amino acid analysis, and diluted into HEPES buffered physiological saline (HBPS). HEK293 or CHO cells from the American Type Culture Collection (ATCC) were transfected with the appropriate ion channel before use. […]
Quantity name: Activity of Kv2.1 with peptide, expressed as a percentage of the reference compound (%)

Substance: 26 (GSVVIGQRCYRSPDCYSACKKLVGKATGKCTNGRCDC) [compound 26]
Experimental target: Kv2.1 (Homo sapiens, UniProt Q14721)
Unit annotation: %
Readout value: 98

Substance: 16 (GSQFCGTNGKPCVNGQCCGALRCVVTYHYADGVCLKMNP) [compound 16]
Experimental target: Kv2.1 (Homo sapiens, UniProt Q14721)
Unit annotation: %
Readout value: 114

Substance: 12 (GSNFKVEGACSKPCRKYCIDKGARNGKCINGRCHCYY) [compound 12]
Experimental target: Kv2.1 (Homo sapiens, UniProt Q14721)
Unit annotation: %
Readout value: 104

Substance: 3 (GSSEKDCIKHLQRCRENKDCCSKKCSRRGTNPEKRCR) [compound 3]
Experimental target: Kv2.1 (Homo sapiens, UniProt Q14721)
Unit annotation: %
Readout value: 80

Substance: 36 (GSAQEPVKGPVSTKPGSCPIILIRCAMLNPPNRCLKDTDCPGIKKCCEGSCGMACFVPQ) [compound 36]
Experimental target: Kv2.1 (Homo sapiens, UniProt Q14721)
Unit annotation: %
Readout value: 104

Substance: 22 (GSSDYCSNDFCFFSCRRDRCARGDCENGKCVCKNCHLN) [compound 22]
Experimental target: Kv2.1 (Homo sapiens, UniProt Q14721)
Unit annotation: %
Readout value: 110

Substance: 18 (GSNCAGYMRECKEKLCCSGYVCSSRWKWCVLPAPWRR) [compound 18]
Experimental target: Kv2.1 (Homo sapiens, UniProt Q14721)
Unit annotation: %
Readout value: 93

Substance: 20 (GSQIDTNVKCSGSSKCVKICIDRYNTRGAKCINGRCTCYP) [compound 20]
Experimental target: Kv2.1 (Homo sapiens, UniProt Q14721)
Unit annotation: %
Readout value: 99

Substance: 9 (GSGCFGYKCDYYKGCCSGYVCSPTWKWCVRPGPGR) [compound 9]
Experimental target: Kv2.1 (Homo sapiens, UniProt Q14721)
Unit annotation: %
Readout value: 112
